Values compiled from patent US10551389B2.

Measured on: Mcl-1 (Homo sapiens, UniProt Q07820)
Sequence (Q07820 whole entry, species assumed): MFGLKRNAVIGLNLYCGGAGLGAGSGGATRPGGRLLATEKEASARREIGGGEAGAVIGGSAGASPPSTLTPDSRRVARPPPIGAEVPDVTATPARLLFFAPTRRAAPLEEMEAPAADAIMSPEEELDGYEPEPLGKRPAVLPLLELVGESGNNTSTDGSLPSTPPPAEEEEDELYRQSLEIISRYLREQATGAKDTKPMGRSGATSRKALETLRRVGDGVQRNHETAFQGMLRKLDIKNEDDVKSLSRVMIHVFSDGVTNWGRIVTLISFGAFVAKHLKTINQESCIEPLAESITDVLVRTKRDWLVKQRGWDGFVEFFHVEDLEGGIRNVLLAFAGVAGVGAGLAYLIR
Assay name: Inhibition of Mcl-1 (disruption of Mcl-1/Bim interaction)
Type: binding
Test conditions: compound at 50 μM
List of % Inhibition (50 μM) Mcl-1 values.
Property: % Inhibition (50 μM) Mcl-1

>>> result("O=C(NS(=O)(=O)CCN(CCSc1ccccc1)Cc1ccc2c(c1)OCO2)c1ccc(C(c2c[nH]c3ccccc23)c2c[nH]c3ccccc23)cc1 [SZ28TA31]")
"25.8%"
>>> result("O=C(CC1Sc2ccccc2NC1=O)NS(=O)(=O)c1ccc(CN(CCSc2ccccc2)Cc2c(F)cccc2Cl)cc1 (stereo not drawn) [SZ15TA34]")
"82.8%"
>>> result("O=C(NS(=O)(=O)c1ccc(CN2CCN(c3ccccc3)CC2)cc1)c1ccc2c(ccn2Cc2ccc(C(F)(F)F)cc2C(F)(F)F)c1 [SZ1TA30]")
"2.6%"

* * *

Recorded % Inhibition (50 μM) Bcl-XL values for a group of compounds are listed next.
Measured on: UniProtKB Q07817
Assay name: Inhibition of Bcl-XL (disruption of Bcl-XL/Bim interaction)
Format: binding
Test conditions: compound at 50 μM
Property: % Inhibition (50 μM) Bcl-XL (%)

>>> readout_number("COc1cccc(CN(CCSc2ccccc2)Cc2ccc(S(=O)(=O)NC(=O)c3ccc(-c4ccc(F)cc4)cc3)cc2)c1")
2.8
>>> readout_number("O=C(CC1Sc2ccccc2NC1=O)NS(=O)(=O)c1ccc(CN(CCSc2ccccc2)Cc2c(F)cccc2Cl)cc1 (stereo not drawn)")
28.6
>>> readout_number("NS(=O)(=O)c1ccc(CN(CCSc2ccccc2)Cc2ccc(S(=O)(=O)NC(=O)CC3Sc4ccccc4NC3=O)cc2)cc1 (stereo not drawn)")
27.0
>>> readout_number("COc1cc2c(cc1OC)C(c1ccccc1)N(CCS(=O)(=O)NC(=O)c1ccc(CN3C(=O)C(c4ccc(F)cc4F)=C(c4ccc(F)cc4F)C3=O)cc1)CC2 (stereo not drawn)")
5.2
>>> readout_number("Cn1cc(C(=O)C2CCCCC2)c2cc(C(=O)NS(=O)(=O)c3ccc(COc4ccc5c(=O)cc(-c6ccccc6)oc5c4)cc3)ccc21")
47.9

* * *

Measured on: Mcl-1 (Homo sapiens)
Assay name: Inhibition of Mcl-1 (disruption of Mcl-1/Bim interaction)
Format: binding
Test conditions: compound at 50 μM
Measured % Inhibition (50 μM) Mcl-1, listed per entry.
Property: % Inhibition (50 μM) Mcl-1

>>> result("O=C(NS(=O)(=O)c1ccc(-c2cc3ccccc3s2)cc1)c1ccc(CN2C(=O)C(c3ccc(F)cc3F)=C(c3ccc(F)cc3F)C2=O)cc1")
"22.7%"
>>> result("COc1cc2c(cc1OC)C(c1ccccc1)N(CCS(=O)(=O)NC(=O)c1ccc(CN3C(=O)C(c4ccc(F)cc4F)=C(c4ccc(F)cc4F)C3=O)cc1)CC2 (stereo not drawn)")
"52.3%"
>>> result("COc1cccc(CN(CCSc2ccccc2)Cc2ccc(S(=O)(=O)NC(=O)c3ccc(CCc4ccccn4)cc3)cc2)c1")
"89.0%"
>>> result("O=C(NS(=O)(=O)c1ccc(NCCSc2ccccc2)c([N+](=O)[O-])c1)c1ccc(CCc2ccccn2)cc1")
"44.7%"
>>> result("COc1cccc(CN(CCSc2ccccc2)Cc2ccc(S(=O)(=O)NC(=O)c3ccc4c(c3)c(C(=O)C3CCCCC3)cn4C)cc2)c1")
"58.5%"
>>> result("O=C(NS(=O)(=O)c1ccc(CN(CCSc2ccccc2)Cc2ccc3c(c2)OCO3)cc1)c1ccc2c(ccn2Cc2ccc(C(F)(F)F)cc2C(F)(F)F)c1")
"30.6%"

* * *

Measured on: Mcl-1 (Homo sapiens, UniProt Q07820)
Assay name: Inhibition of Mcl-1 (disruption of Mcl-1/Bim interaction)
Assay type: binding
Test conditions: compound at 25 μM
Listed next: entries and their corresponding inhibition at 25 µM.
Property: inhibition at 25 µM (%)

>>> readout_number("Cc1noc(C)c1-c1ccc(S(=O)(=O)NC(=O)c2ccc(CN3C(=O)C(c4ccc(F)cc4F)=C(c4ccc(F)cc4F)C3=O)cc2)cc1")
72.2
>>> readout_number("[N-]=[N+]=NS(=O)(=O)c1ccc(CN(CCSc2ccccc2)Cc2ccc(S(=O)(=O)NC(=O)c3ccc(CCc4ccccn4)cc3)cc2)cc1")
69.3
>>> readout_number("[N-]=[N+]=NS(=O)(=O)c1ccc(CN(CCSc2ccccc2)Cc2ccc(S(=O)(=O)NC(=O)CCCN3C(=O)C(c4ccc(F)cc4F)=C(c4ccc(F)cc4F)C3=O)cc2)cc1")
15.7
>>> readout_number("O=C(NS(=O)(=O)c1ccc(CN(CCSc2ccccc2)Cc2c(F)cccc2Cl)cc1)c1ccc(CCc2ccccn2)cc1")
79.6
>>> readout_number("O=C(NS(=O)(=O)c1ccc(-c2ccc(C(F)(F)F)cc2)cc1)c1cccc(NCCc2ccccc2)c1")
49.9
>>> readout_number("O=C(NS(=O)(=O)c1ccc(CN(CCSc2ccccc2)Cc2ccc3c(c2)OCO3)cc1)c1ccc(CCc2ccccn2)cc1")
84.3
>>> readout_number("O=C(Cn1c2ccccc2c2ccccc21)NS(=O)(=O)c1ccc(CN(CCSc2ccccc2)Cc2ccc3c(c2)OCO3)cc1")
82
>>> readout_number("O=C(NS(=O)(=O)c1ccc(CNc2cccc([N+](=O)[O-])c2)cc1)c1ccc(CN2C(=O)C(c3ccc(F)cc3F)=C(c3ccc(F)cc3F)C2=O)cc1")
77.3
>>> readout_number("CC(C)(C)c1ccc(-c2ccc(S(=O)(=O)NC(=O)c3ccc(-c4ccccn4)cc3)cc2)cc1")
20.1
>>> readout_number("Cc1nc(-c2ccccc2)sc1C(=O)NS(=O)(=O)c1ccc(CN(CCSc2ccccc2)Cc2ccc3c(c2)OCO3)cc1")
69.9
>>> readout_number("COc1cccc(CN(CCSc2ccccc2)Cc2ccc(S(=O)(=O)NC(=O)Cn3c4ccccc4c4ccccc43)cc2)c1")
53.3
>>> readout_number("NS(=O)(=O)c1ccc(CN(CCSc2ccccc2)Cc2ccc(S(=O)(=O)NC(=O)CCCN3C(=O)C(c4ccc(F)cc4F)=C(c4ccc(F)cc4F)C3=O)cc2)cc1")
27.8
>>> readout_number("O=C(NS(=O)(=O)c1ccc(NCCSc2ccccc2)c([N+](=O)[O-])c1)c1ccc2c(ccn2Cc2ccc(C(F)(F)F)cc2C(F)(F)F)c1")
68.7

* * *

Measured on: Mcl-1 (Homo sapiens, UniProt Q07820)
Assay name: Inhibition of Mcl-1 (disruption of Mcl-1/Bim interaction)
Description: In a subsequent study, a structurally diverse library of forty five thio acids and thirty eight sulfonyl azides (identified above) was screened in parallel against Mcl-1 and Bcl-XL using the above mentioned approach. Several potential hit combinations were identified (Table 3). […] After the reaction was completed (approximately one minute, monitored by LC-MS) water (200 μL) was added and the pH was adjusted to 7.0 using 1M HCl solution. […]
Reported IC50 by item:
Property: IC50 (µM)

>>> readout_number("CN(C)C(=O)c1cccc(-c2ccc(S(=O)(=O)NC(=O)c3ccc(CN4C(=O)C(c5ccc(F)cc5F)=C(c5ccc(F)cc5F)C4=O)cc3)cc2)c1 [SZ34TA42]")
29.3
>>> readout_number("Cc1nc(-c2ccccc2)sc1C(=O)NS(=O)(=O)c1ccc(CN(CCSc2ccccc2)Cc2ccc(S(=O)(=O)N=[N+]=[N-])cc2)cc1 [SZ9TA3]")
22.7
>>> readout_number("[N-]=[N+]=NS(=O)(=O)c1ccc(CN(CCSc2ccccc2)Cc2ccc(S(=O)(=O)NC(=O)c3ccc(CCc4ccccn4)cc3)cc2)cc1 [SZ9TA17]")
20.4
>>> readout_number("O=C(NS(=O)(=O)c1ccc(CN(CCSc2ccccc2)Cc2c(F)cccc2Cl)cc1)c1ccccc1 [SZ15TA1]")
9.7
>>> readout_number("Cc1nc(-c2ccccc2)sc1C(=O)NS(=O)(=O)c1ccc(CN(CCSc2ccccc2)Cc2c(F)cccc2Cl)cc1 [SZ15TA3]")
5.8
>>> readout_number("O=C(NS(=O)(=O)c1ccc(CN(CCSc2ccccc2)Cc2c(F)cccc2Cl)cc1)c1ccc(OC(F)(F)F)cc1 [SZ15TA8]")
7.6
>>> readout_number("Cc1noc(C)c1-c1ccc(S(=O)(=O)NC(=O)c2ccc(CN3C(=O)C(c4ccc(F)cc4F)=C(c4ccc(F)cc4F)C3=O)cc2)cc1 [SZ32TA42]")
19.1

* * *

Measured on: Bcl-XL (Homo sapiens)
Sequence (Q07817 whole entry, species assumed): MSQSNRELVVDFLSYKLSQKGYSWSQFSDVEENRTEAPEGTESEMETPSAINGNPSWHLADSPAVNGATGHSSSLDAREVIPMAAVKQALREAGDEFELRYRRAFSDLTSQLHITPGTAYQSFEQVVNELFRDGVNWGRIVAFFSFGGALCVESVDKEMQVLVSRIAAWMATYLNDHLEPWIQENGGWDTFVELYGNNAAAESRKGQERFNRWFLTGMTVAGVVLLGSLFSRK
Assay name: Inhibition of Bcl-XL (disruption of Bcl-XL/Bim interaction)
Assay type: binding
Test conditions: compound at 25 μM
Property: % Inhibition (25 μM) Bcl-XL (%)

>>> readout_number("O=C(NS(=O)(=O)c1ccc(CN2CCN(c3ccccc3)CC2)cc1)c1ccc(-c2ccc(F)cc2)cc1")
9.6
>>> readout_number("O=C(NS(=O)(=O)c1ccc(CN(CCSc2ccccc2)Cc2ccc3c(c2)OCO3)cc1)c1ccc(-c2ccc(F)cc2)cc1")
17.3
>>> readout_number("O=C(Cn1c2ccccc2c2ccccc21)NS(=O)(=O)c1ccc(CN(CCSc2ccccc2)Cc2c(F)cccc2Cl)cc1")
10.1
>>> readout_number("COc1cc2c(cc1OC)C(c1ccccc1)N(CCS(=O)(=O)NC(=O)c1ccc(CN3C(=O)C(c4ccc(F)cc4F)=C(c4ccc(F)cc4F)C3=O)cc1)CC2 (stereo not shown)")
14.1
>>> readout_number("NS(=O)(=O)c1ccc(CN(CCSc2ccccc2)Cc2ccc(S(=O)(=O)NC(=O)Cn3c4ccccc4c4ccccc43)cc2)cc1")
9.4
>>> readout_number("COc1ccc(Cc2ccc(C(=O)NS(=O)(=O)c3ccc(CN(CCSc4ccccc4)Cc4c(F)cccc4Cl)cc3)cc2)c(OC)c1OC")
14.7
>>> readout_number("O=C(CC1Sc2ccccc2NC1=O)NS(=O)(=O)c1ccc(CN(CCSc2ccccc2)Cc2c(F)cccc2Cl)cc1 (stereo not shown)")
19.6
>>> readout_number("CC(C)(C)c1ccc(-c2ccc(S(=O)(=O)NC(=O)c3ccc4c(ccn4Cc4ccc(C(F)(F)F)cc4C(F)(F)F)c3)cc2)cc1")
8.5
>>> readout_number("NS(=O)(=O)c1ccc(CN(CCSc2ccccc2)Cc2ccc(S(=O)(=O)NC(=O)c3ccc(-c4ccccn4)cc3)cc2)cc1")
33.9
>>> readout_number("O=C(NS(=O)(=O)CCN(CCSc1ccccc1)Cc1ccc2c(c1)OCO2)c1ccc(C(c2c[nH]c3ccccc23)c2c[nH]c3ccccc23)cc1")
8.1
